Kindly state total protein half-life in vivo for each of the entries shown.
experiment: total protein half-life in vivo (active degradation + dilution); higher = more stable protein; details: E. coli NCM3722 delta-smpB; growth: N-lim chemostat; doubling time 6 h
Provide only the numeric value, understood in h.

Challenge: I am curious: what total protein half-life in vivo value has been reported for `MTITSLDGYRWLKNDIIRGNFQPDEKLRMSLLTSRYALGVGPLREALSQLVAERLVTVVNQKGYRVASMSEQELLDIFDARANMEAMLVSLAIARGGDEWEADVLAKAHLLSKLEACDASEKMLDEWDLRHQAFHTAIVAGCGSHYLLQMRERLFDLAARYRFIWLRRTVLSVEMLEDKHDQHQTLTAAVLARDTARASELMRQHLLTPIPIIQQAMAGN` ?
Response given: 2.18

Challenge: I am curious: what total protein half-life in vivo value has been reported for `MNMKTIEDVFIHLLSDTYSAEKQLTRALAKLARATSNEKLSQAFHAHLEETHGQIERIDQVVESESNLKIKRMKCVAMEGLIEEANEVIESTEKNEVRDAALIAAAQKVEHYEIASYGTLATLAEQLGYRKAAKLLKETLEEEKATDIKLTDLAINNVNKKAENKA` ?
Response given: 4.94

Challenge: I am curious: what total protein half-life in vivo value has been reported for MNKSMLAGIGIGVAAALGVAAVASLNVFERGPQYAQVVSATPIKETVKTPRQECRNVTVTHRRPVQDENRITGSVLGAVAGGVIGHQFGGGRGKDVATVVGALGGGYAGNQIQGSLQESDTYTTTQQRCKTVYDKSEKMLGYDVTYKIGDQQGKIRMDRDPGTQIPLDSNGQLILNNKV [P0AB35] ?
Response given: 0.623

Challenge: I am curious: what total protein half-life in vivo value has been reported for MSEKYIVTWDMLQIHARKLASRLMPSEQWKGIIAVSRGGLVPGALLARELGIRHVDTVCISSYDHDNQRELKVLKRAEGDGEGFIVIDDLVDTGGTAVAIREMYPKAHFVTIFAKPAGRPLVDDYVVDIPQDTWIEQPWDMGVVFVPPISGR [P0A9M5] ?
Response given: 4.28

Challenge: I am curious: what total protein half-life in vivo value has been reported for MSNTYQKRKASKEYGLYNQCKKLNDDELFRLLDDHNSLKRISSARVLQLRGGQDAVRLAIEFCSDKNYIRRDIGAFILGQIKICKKCEDNVFNILNNMALNDKSACVRATAIESTAQRCKKNPIYSPKIVEQSQITAFDKSTNVRRATAFAISVINDKATIPLLINLLKDPNGDVRNWAAFAININKYDNSDIRDCFVEMLQDKNEEVRIEAIIGLSYRKDKRVLSVLCDELKKNTVYDDIIEAAGELGDKTLLPVLDTMLYKFDDNEIITSAIDKLKRS [P0ADK6] ?
Response given: 1.77

Challenge: I am curious: what total protein half-life in vivo value has been reported for `MTQFNPVDHPHRRYNPLTGQWILVSPHRAKRPWQGAQETPAKQVLPAHDPDCFLCAGNVRVTGDKNPDYTGTYVFTNDFAALMSDTPDAPESHDPLMRCQSARGTSRVICFSPDHSKTLPELSVAALTEIVKTWQEQTAELGKTYPWVQVFENKGAAMGCSNPHPHGQIWANSFLPNEAEREDRLQKEYFAEQKSPMLVDYVQRELADGSRTVVETEHWLAVVPYWAAWPFETLLLPKAHVLRITDLTDAQRSDLALALKKLTSRYDNLFQCSFPYSMGWHGAPFNGEENQHWQLHAHFYPPLLRSATVRKFMVGYEMLAETQRDLTAEQAAERLRAVSDIHFRESGV` ?
Response given: 3.41
